- Target: MOS1 transposase (MBP-MOS1) (Drosophila mauritiana, UniProt Q7JQ07)
- Construct: made in house
- Sequence (Q7JQ07 whole entry): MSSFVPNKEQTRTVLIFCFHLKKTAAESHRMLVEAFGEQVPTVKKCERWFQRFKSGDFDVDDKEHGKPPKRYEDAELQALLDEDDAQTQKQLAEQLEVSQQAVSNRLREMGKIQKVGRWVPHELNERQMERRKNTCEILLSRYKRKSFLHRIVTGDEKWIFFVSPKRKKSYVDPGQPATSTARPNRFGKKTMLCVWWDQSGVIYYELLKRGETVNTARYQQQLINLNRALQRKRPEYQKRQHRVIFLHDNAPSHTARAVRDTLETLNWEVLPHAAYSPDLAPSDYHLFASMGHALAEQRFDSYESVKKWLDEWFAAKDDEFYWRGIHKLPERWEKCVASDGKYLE
- Run description: In vitro transposition test
- Assay type: biochemical
- Run parameters: 80 μM compound; ratio of transposition frequency with DMSO to that with compound
Reported property: Inhibition factors
Answers are plain numbers.

> print(dat)
                                   compound                                    target   reported.property  result
1  O=C(O)c1ccc(C2=C(c3ccc(C(=O)O)o3)C(=O)N(c3ccc(O)cc3)C2=O)o1  MOS1 transposase (MBP-MOS1) (Drosophila mauritiana, UniProt Q7JQ07)  Inhibition factors      33

Report Inhibition factors for each item below.
1. COc1ccc(C(c2c(O)c3ccccc3oc2=O)c2c(O)c3ccccc3oc2=O)cc1CSc1ccccn1 [Compound 7, reference compound]
2. O=C/C=C/c1ccc(C2=C(c3ccc(/C=C/C=O)o3)C(=O)N(Cc3ccccc3)C2=O)o1
3. COc1cccc(OCCOc2cccc(CC3SC(=S)NC3=O)c2)c1 (stereo not shown) [Compound 8, reference compound]

82.5
75
79

====

Task for the reader: assign each of the following molecules its reported Inhibition factors.
- Target: MOS1 transposase (MBP-MOS1) (Drosophila mauritiana, UniProt Q7JQ07)
- Construct: made in house
- Run description: In vitro transposition test
- Type: biochemical
- Run parameters: 80 μM compound; ratio of transposition frequency with DMSO to that with compound
Numbers only.

Previously resolved entries follow.
> print(dat)
                                   molecule  result
1  O=C(Nc1ccccc1C(=O)O)c1cccc(NC(=O)C(c2ccccc2)c2ccccc2)c1 [Compound 9, reference compound]      25
2  CCOC(=O)C(Cc1ccccc1)N1C(=O)C(c2ccc(C(=O)O)o2)=C(c2ccc(C(=O)O)o2)C1=O (stereo not drawn) [Compound 3]     100

Could you now consider this next molecule?
State measured Inhibition factors of the molecule O=C(O)C(Cc1ccccc1)N1C(=O)C(=CC=Cc2ccccc2)SC1=S (stereo not drawn) [Compound 10, reference compound] with MOS1 transposase (MBP-MOS1) (Drosophila mauritiana, UniProt Q7JQ07).
145

====

- Target: HIV-1 integrase (Human immunodeficiency virus type 1 group M subtype B, UniProt P04585)
- Construct: made in house
- Run description: 3′ maturation and HIV-1 strand transfer tests
- Assay type: biochemical
- Run parameters: read-out: IC50 strand transfer activity
Reported property: IC50
Please format your answer as a value with the unit trailing.

Name the recorded IC50 of the item O=C/C=C/c1ccc(C2=C(c3ccc(/C=C/C=O)o3)C(=O)N(Cc3ccccc3)C2=O)o1 in your answer.
7 µM
